The reported measurements were obtained from patent US11465987B2.

# System: OVCAR-8 human ovarian cell line
# Test description: Cytotoxicity (SRB) assay, OVCAR-8
# Assay type: cell-based
# Test context: Table 14B, parental cell line, read-out: IC50 ± SEM, OVCAR-8
Value type: pIC50
When answering, recall that pIC50 equals minus log10 of the concentration in mol/L, and write that number alone.

Solved cases below.
>  <Compound>
CC[C@]1(O)C[C@@H]2CN(CCc3c([nH]c4ccccc34)[C@@](C(=O)OC)(c3cc4c(cc3OC)N(C)[C@H]3[C@@](O)(C(=O)OC)[C@H](OC(C)=O)[C@]5(CC)C=CCN6CC[C@]43[C@@H]65)C2)C1 [vinblastine, Vinblastine, reference compound]

>  <pIC50>
8.70

$$$$
>  <Compound>
O=C(c1ccc(F)cc1)c1c[nH]c(-c2ccc(Cl)cc2)n1 [12fb]

>  <pIC50>
7.35

$$$$

Here is the next item to consider.
input: For the compound shown here, COc1ccc(-c2nc(C(=O)c3ccc(F)cc3)c[nH]2)cc1 [12cb] , give the reported pIC50.
output: 7.60

----------
# Test description: in vivo
# Test context: male, ICR, mouse, plasma, iv, 15 mg/kg
Value type: AUC (ng·h/mL)
Please state the figure in ng·h/mL; there is no need to write the unit.

input: For the compound shown here, COc1cc(C(=O)c2csc(-c3ccc(O)cc3)n2)cc(OC)c1OC , give the reported AUC.
output: 2600

----------
# Test system: HEK293-pcDNA3.1 cells
# Test description: Cytotoxicity assay, HEK293-pcDNA3.1 (parental line of the MRP/BCRP sublines)
# Type: cell-based
# Test context: Table 14B; parental cell line; read-out: IC50 ± SEM, HEK293-pcDNA3.1
Below: a set of entries, each annotated with reported IC50.
Please state the figure in nM; there is no need to write the unit.

Solved cases below.
>  <Molecule>
O=C(c1ccc(F)cc1)c1c[nH]c(-c2ccc(Cl)cc2)n1 [12fb]

>  <Unit annotation>
nM

>  <Obs value>
54

$$$$
>  <Molecule>
CC[C@]1(O)C[C@@H]2CN(CCc3c([nH]c4ccccc34)[C@@](C(=O)OC)(c3cc4c(cc3OC)N(C)[C@H]3[C@@](O)(C(=O)OC)[C@H](OC(C)=O)[C@]5(CC)C=CCN6CC[C@]43[C@@H]65)C2)C1 [vinblastine, Vinblastine, reference compound]

>  <Unit annotation>
nM

>  <Obs value>
5

$$$$
>  <Molecule>
COc1ccc(S(=O)(=O)Nc2cccnc2Nc2ccc(O)cc2)cc1 [ABT-751, reference compound]

>  <Unit annotation>
nM

>  <Obs value>
645

$$$$

Here is the next item to consider.
input: For the molecule shown here, COc1ccc(-c2nc(C(=O)c3ccc(F)cc3)c[nH]2)cc1 [12cb] , give the reported IC50.
output: 12

----------
# System: PPC-1 human prostate cancer cell line
# Test description: Cytotoxicity (SRB) assay, PPC-1
# Format: cell-based
# Test context: Homo sapiens, PPC-1, Table 13A; read-out: inhibitory effects, PPC1
Value type: pIC50
When answering, recall that pIC50 equals minus log10 of the concentration in mol/L, and write that number alone.

Solved cases below.
>  <Molecule>
COc1cc(C(=O)c2nc(-c3ccccc3)cn2Cc2ccccc2)cc(OC)c1OC [70o]

>  <Target desc>
PPC-1 human prostate cancer cell line

>  <pIC50>
7.11

$$$$
>  <Molecule>
COc1cc(C(=O)c2nc(-c3ccccc3)cn2C2CCCC2)cc(OC)c1OC [70p]

>  <Target desc>
PPC-1 human prostate cancer cell line

>  <pIC50>
7.20

$$$$
>  <Molecule>
COc1cc(C(=O)c2nc(-c3ccccc3)cn2-c2ccccn2)cc(OC)c1OC [70ad]

>  <Target desc>
PPC-1 human prostate cancer cell line

>  <pIC50>
8.11

$$$$

input: For the molecule shown here, COc1cc(C(=O)c2nc(-c3ccccc3)c[nH]2)cc(OC)c1OC [70a] , give the reported pIC50.
output: 7.89

input: Now give it for COc1cc(C(=O)c2nc(-c3ccccc3)cn2C)cc(OC)c1OC [70m] too.
output: 7.89

input: Now give it for COc1cc(C(=O)c2nc(-c3ccccc3)cn2C(C)C)cc(OC)c1OC [70ac] too.
output: 7.82

----------
# System: PC-3 human prostate cancer cell line
# Test description: cells
# Test context: Homo sapiens, read-out: IC50 ± SEM, PC-3
Below: a set of entries, each annotated with reported pIC50.
When answering, recall that pIC50 equals minus log10 of the concentration in mol/L, and write that number alone.

>  <Compound structure>
COc1cc(C(=O)c2csc(-c3ccc(N)cc3)n2)cc(OC)c1OC

>  <Obs value>
7.80

$$$$
>  <Compound structure>
COc1cc(C(=O)c2csc(-c3cccs3)n2)cc(OC)c1OC

>  <Obs value>
7.36

$$$$

input: For the molecule shown here, COc1cc(C(=O)c2cccc(-c3cc(OC)c(OC)c(OC)c3)c2)cc(OC)c1OC , give the reported pIC50.
output: 4.40

----------
# System: PC-3 human prostate cancer cell line
# Test description: cells
# Test context: Homo sapiens, read-out: IC50 ± SEM, PC-3, Table 12
# From the text: Cells were stained with SRB solution.
Below: a set of entries, each annotated with reported pIC50.
When answering, recall that pIC50 equals minus log10 of the concentration in mol/L, and write that number alone.

Solved cases below.
>  <Molecule>
O=C(c1ccc(F)cc1)c1c[nH]c(-c2ccc(OCc3ccccc3)cc2)n1 [12jb]

>  <pIC50>
7.10

$$$$
>  <Molecule>
CN(C)c1ccc(-c2nc(C(=O)c3ccc(F)cc3)c[nH]2)cc1 [12gb]

>  <pIC50>
7.09

$$$$
>  <Molecule>
COc1ccc(-c2nc(C(=O)c3ccc(F)cc3)c[nH]2)cc1OC [12hb]

>  <pIC50>
5.00

$$$$

input: For the molecule shown here, COc1cc(C(=O)c2c[nH]c(-c3ccc(N(C)C)cc3)n2)cc(OC)c1OC [12ga] , give the reported pIC50.
output: 7.04

input: Now give it for COc1cc(C(=O)c2c[nH]c(-c3ccc(C(F)(F)F)cc3)n2)cc(OC)c1OC [12pa] too.
output: 6.90

----------
# Test system: LNCaP human prostate cancer cell line
# Test description: Cytotoxicity (SRB) assay, LNCaP
# Type: cell-based
# Test context: Homo sapiens, LNCaP, Table 6A; read-out: IC50 ± SEM, LNCaP (converted)
Value type: IC50 (nM)
Please state the figure in nM; there is no need to write the unit.

Solved cases below.
>  <Compound structure>
Cc1ccc(-c2nc(C(=O)c3ccc(F)cc3)cn2C(=O)c2ccc(F)cc2)cc1

>  <Obs value>
1790

$$$$
>  <Compound structure>
O=C(c1csc(-c2ccccc2)n1)c1c(F)c(F)c(F)c(F)c1F

>  <Obs value>
2100

$$$$
>  <Compound structure>
COc1cc(-c2cccc(CO)c2)cc(OC)c1OC

>  <Obs value>
4300

$$$$

Here is the next item to consider.
input: For the molecule shown here, COc1cc(C(=O)c2csc(-c3ccccc3)n2)cc(OC)c1OCCN1C(=O)c2ccccc2C1=O , give the reported IC50.
output: 1450

----------
Below: a set of entries, each annotated with reported IC50.
# System: MDA-MB-435/LCCMDR1 multidrug-resistant melanoma cells
# Test description: Cytotoxicity (SRB) assay, MDA-MB-435/LCCMDR1
# Type: cell-based
# Test context: Homo sapiens; Table 14D; read-out: IC50 ± SEM, MDA-MB-435/LCC-6MDR1 (converted)

Solved cases below.
>  <Molecule>
COc1cc(C(=O)c2c[nH]c(-c3ccc(C(C)(C)C)cc3)n2)cc(OC)c1OC [12w]

>  <Target desc>
MDA-MB-435/LCCMDR1 multidrug-resistant melanoma cells

>  <Obs value>
3070 nM

$$$$
>  <Molecule>
COc1cc(C(=O)c2nc(-c3ccccc3)c[nH]2)cc(OC)c1OC [70a]

>  <Target desc>
MDA-MB-435/LCCMDR1 multidrug-resistant melanoma cells

>  <Obs value>
43 nM

$$$$
>  <Molecule>
COc1cc(C(=O)c2c[nH]c(-c3ccc(C(C)C)cc3)n2)cc(OC)c1OC [12v]

>  <Target desc>
MDA-MB-435/LCCMDR1 multidrug-resistant melanoma cells

>  <Obs value>
250 nM

$$$$

input: For the molecule shown here, CCc1ccc(-c2nc(C(=O)c3cc(OC)c(OC)c(OC)c3)c[nH]2)cc1 [12q] , give the reported IC50.
output: 27 nM

----------
Below: a set of entries, each annotated with reported IC50.
# Tested on: PC-3 human prostate cancer cell line
# Test description: cells
# Test context: Homo sapiens, read-out: IC50 PC-3, SRB assay, prostate cancer PC-3
Where a name gives a salt, the structure may show the parent alone.
Please state the figure in nM; there is no need to write the unit.

Solved cases below.
>  <Compound>
COc1cc(/C(=N/N)c2csc(-c3ccccc3)n2)cc(OC)c1OC [2d-cis]

>  <Target desc>
PC-3 human prostate cancer cell line

>  <IC50 [nM]>
1120

$$$$
>  <Compound>
CC[C@]1(O)C[C@@H]2CN(CCc3c([nH]c4ccccc34)[C@@](C(=O)OC)(c3cc4c(cc3OC)N(C)[C@H]3[C@@](O)(C(=O)OC)[C@H](OC(C)=O)[C@]5(CC)C=CCN6CC[C@]43[C@@H]65)C2)C1 [vinblastine, Vinblastine, reference compound]

>  <Target desc>
PC-3 human prostate cancer cell line

>  <IC50 [nM]>
2.1

$$$$
>  <Compound>
COc1cc(C(=O)c2csc(-c3ccc(N(C)C)cc3)n2)cc(OC)c1OC

>  <Target desc>
PC-3 human prostate cancer cell line

>  <IC50 [nM]>
73

$$$$
>  <Compound>
COc1cc(/C(=N\N)c2csc(-c3ccccc3)n2)cc(OC)c1OC [2d-trans]

>  <Target desc>
PC-3 human prostate cancer cell line

>  <IC50 [nM]>
1040

$$$$
>  <Compound>
COc1cc(C(=NC#N)c2csc(-c3ccccc3)n2)cc(OC)c1OC

>  <Target desc>
PC-3 human prostate cancer cell line

>  <IC50 [nM]>
27

$$$$
>  <Compound>
COc1cc(C(=O)c2csc(Nc3ccc(C)cc3)n2)cc(OC)c1OC [5Hb, hydrochloride salt]

>  <Target desc>
PC-3 human prostate cancer cell line

>  <IC50 [nM]>
38

$$$$

input: For the compound shown here, COc1cc(C(=O)c2csc(-c3ccccc3)c2)cc(OC)c1OC , give the reported IC50.
output: 12
